Molecular target: HLA-A*0301 (purified HLA class I molecule) (human)
Experiment: competition vs 125I standard peptide, purified HLA
MEASURED METRIC: relative binding ratio

[[record]]
binder = "ILKETELRK [HER2/neu peptide, position 714, 9 amino acids]"
measured_metric = "relative binding ratio"
result = "0.019 ratio (IC50 standard/IC50 test)"

[[record]]
binder = "KIPVAIKVLR [HER2/neu peptide, position 747, 10 amino acids]"
measured_metric = "relative binding ratio"
result = "0.0009 ratio (IC50 standard/IC50 test)"

[[record]]
binder = "KVLRENTSPK [HER2/neu peptide, position 753, 10 amino acids]"
measured_metric = "relative binding ratio"
result = "0.38 ratio (IC50 standard/IC50 test)"

[[record]]
binder = "KIRKYTMR [HER2/neu peptide, position 681, 8 amino acids]"
measured_metric = "relative binding ratio"
result = "0.001 ratio (IC50 standard/IC50 test)"

[[record]]
binder = "ILWKDIFHK (also called Her2/neu.167) [HER2/neu peptide, position 167, 9 amino acids]"
measured_metric = "relative binding ratio"
result = "0.28 ratio (IC50 standard/IC50 test)"

[[record]]
binder = "LSPGKNGVVK [HER2/neu peptide, position 1173, 10 amino acids]"
measured_metric = "relative binding ratio"
result = "-0.0002 ratio (IC50 standard/IC50 test)"

[[record]]
binder = "LACHQLCAR [HER2/neu peptide, position 509, 9 amino acids]"
measured_metric = "relative binding ratio"
result = "-0.0002 ratio (IC50 standard/IC50 test)"

[[record]]
binder = "GVVFGILIK [HER2/neu peptide, position 668, 9 amino acids]"
measured_metric = "relative binding ratio"
result = "0.0047 ratio (IC50 standard/IC50 test)"

[[record]]
binder = "LALTLIDTNR [HER2/neu peptide, position 179, 10 amino acids]"
measured_metric = "relative binding ratio"
result = "-0.0002 ratio (IC50 standard/IC50 test)"

[[record]]
binder = "HTVPWDQLFR (also called Her2/neu.478) [HER2/neu peptide, position 478, 10 amino acids]"
measured_metric = "relative binding ratio"
result = "0.0035 ratio (IC50 standard/IC50 test)"

[[record]]
binder = "ILIKRRQQK [HER2/neu peptide, position 673, 9 amino acids]"
measured_metric = "relative binding ratio"
result = "0.38 ratio (IC50 standard/IC50 test)"

[[record]]
binder = "MALESILRRR [HER2/neu peptide, position 889, 10 amino acids]"
measured_metric = "relative binding ratio"
result = "0.0011 ratio (IC50 standard/IC50 test)"

[[record]]
binder = "LVHRDLAAR [HER2/neu peptide, position 841, 9 amino acids]"
measured_metric = "relative binding ratio"
result = "0.004 ratio (IC50 standard/IC50 test)"

[[record]]
binder = "LLNWCMQIAK [HER2/neu peptide, position 822, 10 amino acids]"
measured_metric = "relative binding ratio"
result = "0.14 ratio (IC50 standard/IC50 test)"

[[record]]
binder = "LTLIDTNRSR [HER2/neu peptide, position 181, 10 amino acids]"
measured_metric = "relative binding ratio"
result = "0.0002 ratio (IC50 standard/IC50 test)"

[[record]]
binder = "LIKRRQQKIR [HER2/neu peptide, position 674, 10 amino acids]"
measured_metric = "relative binding ratio"
result = "0.0002 ratio (IC50 standard/IC50 test)"

